Tested on: U2OS
Test: Multiplex assay against U2OS
Type: toxicity, cell-based
Conditions: human, 48 h, 10 µM, compound concentration 10 uM, replicate 2
Listing of entries alongside the reported Population Fragmented Nuclei (%).
observation_type: Population Fragmented Nuclei (%)

>>> number("CCOc1cc(C(=O)N2CCC(N3CCN(C)CC3)CC2)ccc1Nc1ncc2c(n1)N(C1CCCC1)c1ccccc1C(=O)N2C")
16
>>> number("C=C1/C(=C\\C=C2/CCC[C@]3(C)[C@@H]([C@H](C)/C=C/[C@H](C)C(C)C)CC[C@@H]23)C[C@@H](O)C[C@@H]1O [DOXERCALCIFEROL]")
12
>>> number("CNc1cc(Oc2cc(C(=O)Nc3cc(N4CCN(C)CC4)cc(C(F)(F)F)c3)ccc2C)ncn1")
22
>>> number("CCCS(=O)(=O)c1nc(NC2CC2)cc(-c2ccc3c(ccn3C3CC(C)(C)NC(C)(C)C3)c2)n1")
73
>>> number("CN(C)C(=O)C(CCN1CCC(O)(c2ccc(Cl)cc2)CC1)(c1ccccc1)c1ccccc1.Cl [LOPERAMIDE HYDROCHLORIDE]")
21
>>> number("Cc1ccc(C(=O)Nc2cccc(C(F)(F)F)c2)cc1Nc1nc(-c2cccnc2)nc2c1cnn2C")
25
>>> number("CCc1cccc(CC)c1NC(=O)c1nn(C)c2c1CCc1cnc(Nc3ccc(C(=O)NC4CCN(C)CC4)cc3OC(F)(F)F)nc1-2")
11
>>> number("Cc1cc(C)c(S(=O)(=O)N(Cc2ccc(-c3cccc(S(C)(=O)=O)c3)cc2)Cc2ccc(C(F)(F)F)o2)c(C)c1")
7
>>> number("O=C(Nc1ccc(-n2nc(-c3cccnc3)cc2C(F)(F)F)cn1)c1ccc(-c2ccccc2)c(F)c1 [BI 2049]")
7
>>> number("Cc1cn(-c2cc(NC(=O)c3ccc(C)c(Nc4nccc(-c5cccnc5)n4)c3)cc(C(F)(F)F)c2)cn1 [NILOTINIB]")
15
>>> number("CCn1c(=O)c(-c2ccc(-c3cncs3)cc2Cl)cc2cnc(Nc3ccc(N4CCN(C)CC4)cc3)nc21")
16
>>> number("CN1C2CCC1CC(OC(c1ccc(F)cc1)c1ccc(F)cc1)C2.Cl (stereo not drawn)")
16
>>> number("CN1CCC(=C2c3ccccc3CC(=O)c3sccc32)CC1.O=C(O)/C=C/C(=O)O [KETOTIFEN FUMARATE]")
7
>>> number("Cl.Oc1ccc2c3c1O[C@H]1c4[nH]c5c(c4C[C@@]4(O)[C@@H](C2)N(CC2CC2)CC[C@]314)C[C@@]1(O)[C@H]2Cc3ccc(O)c4c3[C@@]1(CCN2CC1CC1)[C@H]5O4")
11
>>> number("O=C1NC(=O)C(c2cnc3ccccn23)=C1c1cn2c3c(cc(F)cc13)CN(C(=O)N1CCCCC1)CC2 [LY-2090314]")
12
>>> number("O=C1N/C(=N/c2ccccc2F)S/C1=C\\c1ccc(C(=O)O)cc1")
4
>>> number("Cl.O=c1c2cccn2c2ccccc2n1CCCN1CCC(c2ccc(Cl)cc2)CC1")
16
>>> number("CN1CCN(C(=O)C(C)(C)c2ccc(C(=O)Nc3cn4cc(-c5ccncc5)ccc4n3)cc2)CC1 [T3-CLK]")
28
>>> number("CCN1CCN(Cc2ccc(Nc3ncc(F)c(-c4cc(F)c5nc(C)n(C(C)C)c5c4)n3)nc2)CC1.CS(=O)(=O)O")
17
>>> number("S=C(NCCCc1c[nH]cn1)NCCCN(Cc1ccc(Cl)c(Cl)c1)c1ccc(Br)cn1")
31
>>> number("O=C(Cc1ccc(-c2ccc(OCCN3CCOCC3)cc2)cn1)NCc1ccccc1 [TIRBANIBULIN]")
23
>>> number("O=C(Nc1ccc(-c2ccnc(Nc3ccc(N4CCOCC4)cc3)n2)cc1)[C@@H]1CCCN1")
9
>>> number("Cl.O=C(c1ccc(Nc2nccc(-c3cc4ccccc4s3)n2)cc1)N1CCC(N2CCCC2)CC1")
28
>>> number("O=C(Nc1ccc(Cl)cc1)Nc1cccc(-c2cccc(N3CCCC3)n2)c1")
19
>>> number("COCC(=O)NC/C=C/c1ccc2ncnc(Nc3ccc(Oc4ccc(C)nc4)c(C)c3)c2c1 [CP-724714]")
14
>>> number("COc1cc(N2CCN(C)CC2)ccc1Nc1ncc2c(n1)N(C)c1ccccc1C(=O)N2C")
11
>>> number("CCCn1c(=O)c2[nH]c(-c3cnn(Cc4cccc(C(F)(F)F)c4)c3)nc2n(CC)c1=O [GS 6201]")
12
>>> number("CCOC(=O)c1c(C)[nH]c2ccc3c(c12)CN1CCc2cc(OC)ccc2C1O3 (stereo not drawn)")
14
